Each entry below lists one item and its recorded inhibition at 50 µM value.
Target: LasB elastase activity in dialysed supernatant from P. aeruginosa strain PA01 (Pseudomonas aeruginosa, UniProt P14756)
Construct: uses as source of enzyme dialysed supernatant from P. aeruginosa; endogenous in cells; host or cells: P. aeruginosa strain PA01 culture supernatant, filtered and dialysed
Experiment: Elastin Congo Red assay to determine % inhibition (Assay 1)
Type: biochemical
Conditions: read-out: Elastin hydrolysis % inhibition @ 50/25 μM inhibitor concentration Assay 1
Method: Experiments were therefore conducted (1) to measure the potency of inhibition of compounds of the invention against purified Pseudomonas aeruginosa LasB enzyme and also experiments were conducted (2) to measure the ability of compounds of the invention to inhibit LasB-catalysed elastin degradation. […] The Elastin assay uses as source of enzyme dialysed supernatant from P. aeruginosa and the elastin congo red as substrate. […] This red dye release can be measured with a spectrophotometer. […]

{"Smiles Repr": "C[N+]1(C)CCC(OC(=O)[C@H](Cc2c[nH]c3ccccc23)NC(=O)C2(CC(=O)O)Cc3ccccc3C2)CC1", "Measured": "> 60%"}

Query :: Would you kindly share the measured inhibition at 50 µM for `NCCCc1ccc2sc(CNC(=O)C3(CC(=O)O)Cc4ccccc4C3)nc2c1` ?
Result :: > 60%

Query :: Would you kindly share the measured inhibition at 50 µM for `O=C(O)CC1(C(=O)NCc2nc3ccc(N4CCNCC4)cc3s2)Cc2ccccc2C1` ?
Result :: 30 to 60%

Query :: Would you kindly share the measured inhibition at 50 µM for `CN(C)CCOc1ccc2nc(CNC(=O)C3(CC(=O)O)Cc4ccccc4C3)sc2c1` ?
Result :: 30 to 60%

###

biological target: purified LasB protein from P. aeruginosa (Pseudomonas aeruginosa); construct: purchased Merck or Charles River Laboratories; assay: Fluorometric assay to determine Ki (Assay 1); format: biochemical; settings: Ki (μM) Assay 1, purified LasB, substrate Abz-Ala-Gly-Leu-Ala-p-Nitro-Benzyl-Amide 250 μM, Ki calculated from IC50; inhibitor 0.006 to 200 μM
Each entry below lists one item and its recorded Ki value.

{"Smiles Repr": "C[N+](C)(C)C1CN(c2ccc3sc(CNC(=O)C4(CC(=O)[O-])Cc5ccccc5C4)nc3c2)C1", "Ki": "0.3 to 2 µM"}

Query :: Would you kindly share the measured Ki for `O=C(O)CC1(C(=O)NCCc2nc3ccccc3s2)Cc2ccccc2C1` ?
Result :: 2 to 10 µM

Query :: Would you kindly share the measured Ki for `O=C(O)CC1(C(=O)NCc2nc3cc(O)ccc3s2)Cc2ccccc2C1` ?
Result :: < 0.3 µM

Query :: Would you kindly share the measured Ki for `C[N+]1(C)CCC(OC(=O)[C@H](Cc2c[nH]c3ccccc23)NC(=O)C2(CC(=O)O)Cc3ccccc3C2)CC1` ?
Result :: 0.3 to 2 µM

Query :: Would you kindly share the measured Ki for `O=C(O)CC1(C(=O)NCc2nc3ccccc3s2)Cc2ccccc2C1` ?
Result :: < 0.3 µM

Query :: Would you kindly share the measured Ki for `CN(C)C[C@H]1C[C@H](c2ccc3nc(CNC(=O)C4(CC(=O)O)Cc5ccccc5C4)sc3c2)C1` ?
Result :: < 0.3 µM

Query :: Would you kindly share the measured Ki for `N[C@@H]1CCN(c2ccc3sc(CNC(=O)C4(CC(=O)O)Cc5ccccc5C4)nc3c2)C1` ?
Result :: 0.3 to 2 µM

Query :: Would you kindly share the measured Ki for `NC1CN(c2ccc3sc(CNC(=O)C4(CC(=O)O)Cc5ccccc5C4)nc3c2)C1` ?
Result :: < 0.3 µM

Query :: Would you kindly share the measured Ki for `Cc1cccc2sc(CNC(=O)C3(CC(=O)O)Cc4ccccc4C3)nc12` ?
Result :: < 0.3 µM

Query :: Would you kindly share the measured Ki for `NC/C=C/c1ccc2nc(CNC(=O)C3(CC(=O)O)Cc4ccccc4C3)sc2c1` ?
Result :: < 0.3 µM

Query :: Would you kindly share the measured Ki for `NCC1CN(c2ccc3nc(CNC(=O)C4(CC(=O)O)Cc5ccccc5C4)sc3c2)C1` ?
Result :: < 0.3 µM

Query :: Would you kindly share the measured Ki for `C[N+](C)(C)CCCc1ccc2nc(CNC(=O)C3(CC(=O)O)Cc4ccccc4C3)sc2c1` ?
Result :: 0.3 to 2 µM

Query :: Would you kindly share the measured Ki for `O=C(O)CC1(C(=O)NCc2nc3cnccc3s2)Cc2ccccc2C1` ?
Result :: 0.3 to 2 µM

###

Biological target: LasB elastase activity in dialysed supernatant from P. aeruginosa strain PA01 (Pseudomonas aeruginosa, UniProt P14756)
Construct: uses as source of enzyme dialysed supernatant from P. aeruginosa; endogenous in cells; host or cells: P. aeruginosa strain PA01 culture supernatant, filtered and dialysed
Experiment: Elastin Congo Red assay to determine % inhibition (Assay 1)
Assay type: biochemical
Settings: read-out: Elastin hydrolysis % inhibition @ 50/25 μM inhibitor concentration Assay 1
Experimental: Experiments were therefore conducted (1) to measure the potency of inhibition of compounds of the invention against purified Pseudomonas aeruginosa LasB enzyme and also experiments were conducted (2) to measure the ability of compounds of the invention to inhibit LasB-catalysed elastin degradation. […] The Elastin assay uses as source of enzyme dialysed supernatant from P. aeruginosa and the elastin congo red as substrate. […] This red dye release can be measured with a spectrophotometer. […]
Each entry below lists one item and its recorded inhibition at 50 µM value.

Please review the entries below; each comes with its answer.
{"Smiles Repr": "N[C@H]1CCN(c2ccc3nc(CNC(=O)C4(CC(=O)O)Cc5ccccc5C4)sc3c2)C1", "inhibition at 50 µM": "> 60%"}
{"Smiles Repr": "O=C(O)CC1(C(=O)NCc2cc3ccccc3[nH]2)Cc2ccccc2C1", "inhibition at 50 µM": "30 to 60%"}
{"Smiles Repr": "NCc1nnc([C@H](Cc2c[nH]c3ccccc23)NC(=O)C2(CC(=O)O)Cc3ccccc3C2)o1", "inhibition at 50 µM": "> 60%"}
{"Smiles Repr": "O=C(O)CC1(C(=O)NCc2cc3ccccc3o2)Cc2ccccc2C1", "inhibition at 50 µM": "30 to 60%"}
{"Smiles Repr": "O=C(O)CC1(C(=O)NCc2cc3ccccc3s2)Cc2ccccc2C1", "inhibition at 50 µM": "30 to 60%"}
{"Smiles Repr": "CN(C)C1CN(c2ccc3sc(CNC(=O)C4(CC(=O)O)Cc5ccccc5C4)nc3c2)C1", "inhibition at 50 µM": "> 60%"}

Query :: Would you kindly share the measured inhibition at 50 µM for `Cc1ccc2oc(CNC(=O)C3(CC(=O)O)Cc4ccccc4C3)cc2c1` ?
Result :: > 60%

Query :: Would you kindly share the measured inhibition at 50 µM for `Cn1c(CNC(=O)C2(CC(=O)O)Cc3ccccc3C2)cc2ccccc21` ?
Result :: > 60%

###

target: purified LasB protein from P. aeruginosa (Pseudomonas aeruginosa, UniProt P14756); construct: purchased Merck or Charles River Laboratories; test: Fluorometric assay to determine Ki (Assay 1); assay type: biochemical; conditions: Ki (μM) Assay 1, purified LasB, substrate Abz-Ala-Gly-Leu-Ala-p-Nitro-Benzyl-Amide 250 μM, Ki calculated from IC50; inhibitor 0.006 to 200 μM
Sequence (P14756 198-498): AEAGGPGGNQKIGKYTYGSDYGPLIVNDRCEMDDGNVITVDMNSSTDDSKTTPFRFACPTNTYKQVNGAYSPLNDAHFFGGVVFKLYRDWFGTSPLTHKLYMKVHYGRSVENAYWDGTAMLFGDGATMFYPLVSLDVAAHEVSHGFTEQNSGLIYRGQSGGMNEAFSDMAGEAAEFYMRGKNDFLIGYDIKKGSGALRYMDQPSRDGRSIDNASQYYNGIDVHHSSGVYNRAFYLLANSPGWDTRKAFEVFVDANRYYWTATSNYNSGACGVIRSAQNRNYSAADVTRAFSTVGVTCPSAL
Value Type: Ki

Please review the entries below; each comes with its answer.
{"Compound": "O=C(O)CC1(C(=O)NCCc2ccc(O)cc2)Cc2ccccc2C1", "Ki": "2 to 10 µM"}
{"Compound": "NCCCc1ccc2nc(CNC(=O)C3(CC(=O)O)Cc4ccccc4C3)sc2c1", "Ki": "0.3 to 2 µM"}
{"Compound": "N[C@H]1CCN(c2ccc3sc(CNC(=O)C4(CC(=O)O)Cc5ccccc5C4)nc3c2)C1", "Ki": "0.3 to 2 µM"}
{"Compound": "O=C(O)CC1(C(=O)N[C@@H](Cc2c[nH]c3ccccc23)C(=O)O)Cc2ccccc2C1", "Ki": "< 0.3 µM"}
{"Compound": "C[N+](C)(C)C[C@H]1C[C@H](c2ccc3nc(CNC(=O)C4(CC(=O)[O-])Cc5ccccc5C4)sc3c2)C1", "Ki": "0.3 to 2 µM"}
{"Compound": "CN(C)CCc1ccc2nc(CNC(=O)C3(CC(=O)O)Cc4ccccc4C3)sc2c1", "Ki": "0.3 to 2 µM"}
{"Compound": "O=C(O)CC1(C(=O)NCc2nccs2)Cc2ccccc2C1", "Ki": "0.3 to 2 µM"}
{"Compound": "O=C(O)CC1(C(=O)NCc2c[nH]c3ccccc23)Cc2ccccc2C1", "Ki": "2 to 10 µM"}

Query :: Would you kindly share the measured Ki for O=C(O)CC1(C(=O)NC2CCN(c3cccc(Cl)c3)C2)Cc2ccccc2C1 (stereo not shown) ?
Result :: < 0.3 µM

Query :: Would you kindly share the measured Ki for `O=C(O)CC1(C(=O)NCc2nc3c(I)cccc3s2)Cc2ccccc2C1` ?
Result :: < 0.3 µM

Query :: Would you kindly share the measured Ki for `C[N+](C)(C)Cc1ccc2nc(CNC(=O)C3(CC(=O)[O-])Cc4ccccc4C3)sc2c1` ?
Result :: 2 to 10 µM

Query :: Would you kindly share the measured Ki for `COc1cccc2sc(CNC(=O)C3(CC(=O)O)Cc4ccccc4C3)nc12` ?
Result :: < 0.3 µM

Query :: Would you kindly share the measured Ki for `C[N+](C)(C)Cc1ccc2sc(CNC(=O)C3(CC(=O)[O-])Cc4ccccc4C3)nc2c1` ?
Result :: 0.3 to 2 µM

Query :: Would you kindly share the measured Ki for `C[N+](C)(C)CCc1ccc2nc(CNC(=O)C3(CC(=O)[O-])Cc4ccccc4C3)sc2c1` ?
Result :: 0.3 to 2 µM

Query :: Would you kindly share the measured Ki for `COc1ccc2sc(CNC(=O)C3(CC(=O)O)Cc4ccccc4C3)nc2c1` ?
Result :: < 0.3 µM

Query :: Would you kindly share the measured Ki for `O=C(O)CC1(C(=O)NCc2nc3c(s2)CNCC3)Cc2ccccc2C1` ?
Result :: 2 to 10 µM

Query :: Would you kindly share the measured Ki for `CN(C)CCOc1ccc2nc(CNC(=O)C3(CC(=O)O)Cc4ccccc4C3)sc2c1` ?
Result :: 0.3 to 2 µM
